studyTarget: ScMyo5
procedureDetails: SPOT peptide array binding signal intensity (averaged, normalized) (arbitrary units (background-subtracted, floor 0; scale differs between SH3 domains)); higher = stronger binding of the SH3 domain to the peptide
attributeMeasured: SPOT peptide array binding signal intensity

Examples with answers:
>>> endpointvalue("EREKALPPIPFTTTL")
"≤ 0"
>>> endpointvalue("RKNRAPPQRPRFNRD")
14.5
>>> endpointvalue("KKIRLIFTYPSTVGR")
5
>>> endpointvalue("GRSRLFPHSPLGRSS")
"≤ 0"

Turning now to a further record.
Exam item: Could you share which SPOT peptide array binding signal intensity value was measured for RPPRPPPKPLHLRTE ?
Marked response: 163
